// values below are reported relative binding
Molecular target: T1, purified, recombinant parvovirus B19 capsid proteins VP1 and VP2 (VP1-VP2) (human parvovirus B19, UniProt P07299 1-781; P07299 1-554)
T1 construct: Surrogate target: partially purified/purified recombinant VP1 + VP2 preparation; Made by methods of US 5,498,413 or WO 91/12269
Experiment: phage ELISA, constant phage against decreasing VP1-VP2 coat; normalized signal interpolated at 1:10 dilution of VP1-VP2
Protocol: From convergent screens of phage display libraries, eluted phage were propagated and 376 phage isolates were selected randomly and individually tested for binding to VP1-VP2 by standard ELISA techniques, using a polyclonal anti-phage antibody to detect bound phage. […] The bound antibody was detected by adding 100 μl per well of two-component TMB (tetramethylbenzidine; Kirkegaard & Perry). […]
Positions of bridges follow the written chain, without caps; N, C: chain ends. No end group written: not given here.

{"columns": ["BINDER", "relative binding"],
 "data": [
  ["HFCHFWFGGCPH (peptide, not shown: large carriers, disulfide 3-10 (inferred); also: displayed on M13 phage, coat protein fusion and flanking residues not given here, Tested as phage isolate displaying the peptide (TN8 library)) [TN8 isolate D06]", 40],
  ["FFCSFWHGGCDD (peptide, not shown: large carriers, disulfide 3-10 (inferred); also: displayed on M13 phage, coat protein fusion and flanking residues not given here, Tested as phage isolate displaying the peptide (TN8 library); The synthetic peptide form is a separate molecule; also called TN8 isolate A01) [A01-TN8 phage isolate]", 52],
  ["LFCHFWYNCDF (peptide, not shown: large carriers, disulfide 3-9 (inferred); also: displayed on M13 phage, coat protein fusion and flanking residues not given here, Tested as phage isolate displaying the peptide (TN7 library)) [TN7 isolate B12]", 29],
  ["FFCQYWYNCD (peptide, not shown: large carriers, disulfide 3-9 (inferred); also: displayed on M13 phage, coat protein fusion and flanking residues not given here, Tested as phage isolate displaying the peptide (TN7 library); Last template position printed as '-' (10 residues)) [TN7 isolate C11]", 26]
]}

Source: patent US20020031761A1
